- testedOn: human CDK9/cycK (Homo sapiens (Human), UniProt P50750)
- Sequence (P50750 whole entry): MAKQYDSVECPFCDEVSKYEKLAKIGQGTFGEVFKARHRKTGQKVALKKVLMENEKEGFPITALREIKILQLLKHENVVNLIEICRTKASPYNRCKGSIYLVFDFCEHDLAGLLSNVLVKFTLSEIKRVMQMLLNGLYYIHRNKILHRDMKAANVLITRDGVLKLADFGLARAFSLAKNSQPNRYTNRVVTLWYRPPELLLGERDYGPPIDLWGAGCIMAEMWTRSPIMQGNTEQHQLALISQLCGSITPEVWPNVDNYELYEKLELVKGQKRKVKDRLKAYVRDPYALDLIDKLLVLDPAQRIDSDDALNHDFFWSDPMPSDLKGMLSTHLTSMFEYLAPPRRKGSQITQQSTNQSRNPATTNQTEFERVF
- Sequence (O75909 whole entry partner): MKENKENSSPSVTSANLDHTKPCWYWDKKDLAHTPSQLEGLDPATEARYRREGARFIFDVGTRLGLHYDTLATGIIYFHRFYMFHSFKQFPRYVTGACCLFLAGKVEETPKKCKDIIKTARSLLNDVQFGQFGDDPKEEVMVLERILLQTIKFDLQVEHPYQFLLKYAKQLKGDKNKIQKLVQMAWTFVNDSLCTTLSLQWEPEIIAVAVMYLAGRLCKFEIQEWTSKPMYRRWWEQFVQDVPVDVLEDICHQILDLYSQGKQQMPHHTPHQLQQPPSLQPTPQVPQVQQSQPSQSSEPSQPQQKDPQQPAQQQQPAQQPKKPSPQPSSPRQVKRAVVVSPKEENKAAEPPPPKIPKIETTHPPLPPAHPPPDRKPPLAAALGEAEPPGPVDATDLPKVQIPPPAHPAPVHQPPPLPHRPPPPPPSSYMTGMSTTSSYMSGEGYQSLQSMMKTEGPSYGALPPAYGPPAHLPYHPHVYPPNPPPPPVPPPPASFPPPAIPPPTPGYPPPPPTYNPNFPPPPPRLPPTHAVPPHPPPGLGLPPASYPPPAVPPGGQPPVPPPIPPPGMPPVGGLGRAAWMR
- assayProcedure: CDK9 IC50 (ADP-Glo kinase assay)
- experimentalContext: ATP 8 μM, CDKtide substrate
pIC50: −log10 of the molar value.
quantityMeasured: pIC50

cpdSmiles: CCc1cnn2c(NCc3ccccc3F)cc(NC[C@H]3CCNC[C@@H]3O)nc12
pIC50: 6.70

P. O[C@H]1CNCC[C@@H]1CNc1cc(NCc2ccccc2)n2ncc(C3CC3)c2n1
Q. CCc1cnn2c(NCc3cccc(C#N)c3)cc(NC[C@H]3CCNC[C@@H]3O)nc12
R. CCc1cnn2c(NCc3cccc(C#N)c3)c(Cl)c(NC[C@H]3CCNC[C@@H]3O)nc12
Query: Kindly order the items shown according to pIC50, from the highest value down. Put the labels in the requested order and list them out.
Reply: Q, R, P
(Q: 7.66, R: 6.89, P: 6.68)
